TESTED TARGET: recombinant human AChE (Homo sapiens, UniProt P22303)
Construct: gift of Dr Florian Nachon (Armed Forces Biomedical Research Institute, Brétigny-sur-Orge, France)
Sequence (P22303 32-614): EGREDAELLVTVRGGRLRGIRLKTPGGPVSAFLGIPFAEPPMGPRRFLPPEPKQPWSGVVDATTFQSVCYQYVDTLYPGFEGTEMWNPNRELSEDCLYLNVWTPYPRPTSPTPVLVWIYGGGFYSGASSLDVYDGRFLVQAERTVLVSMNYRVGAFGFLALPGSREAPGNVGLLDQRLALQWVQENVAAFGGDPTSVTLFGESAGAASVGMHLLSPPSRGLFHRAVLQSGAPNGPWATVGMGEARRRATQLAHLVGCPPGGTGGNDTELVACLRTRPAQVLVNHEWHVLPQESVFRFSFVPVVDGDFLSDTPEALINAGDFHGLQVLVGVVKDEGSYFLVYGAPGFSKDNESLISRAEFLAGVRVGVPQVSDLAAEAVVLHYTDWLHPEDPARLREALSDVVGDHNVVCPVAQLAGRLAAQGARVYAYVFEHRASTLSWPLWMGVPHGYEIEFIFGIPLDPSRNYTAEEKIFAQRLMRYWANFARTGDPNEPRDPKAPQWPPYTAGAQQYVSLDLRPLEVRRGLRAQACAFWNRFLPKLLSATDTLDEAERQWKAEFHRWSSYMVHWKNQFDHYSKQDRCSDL
RUN DESCRIPTION: biochemical
Assay type: biochemical
APPLIED CONDITIONS: IS = Ki(BChE)/Ki(AChE); IS > 1 selective to AChE

COMPOUND	IS
Clc1ccc2c(NCCCN3CCN(CCCNCCC45CC6CC(CC(C6)C4)C5)CC3)ccnc2c1	4.1
Clc1ccc2c(NCCCN3CCN(CCCNCC45CC6CC(CC(C6)C4)C5)CC3)ccnc2c1	4.8
CC(CCNCCC12CC3CC(CC(C3)C1)C2)Nc1ccnc2ccccc12 (centres unmarked)	0.7
Clc1ccc2c(NCCCCN(CCC34CC5CC(CC(C5)C3)C4)CCC34CC5CC(CC(C5)C3)C4)ccnc2c1	0.4
Clc1ccc2c(N3CCN(CC45CC6CC(CC(C6)C4)C5)CC3)ccnc2c1	2.7
CC(CCNCC12CC3CC(CC(C3)C1)C2)Nc1ccnc2cc(Cl)ccc12 (centres unmarked)	2.1
Clc1ccc2c(NCCNCC34CC5CC(CC(C5)C3)C4)ccnc2c1	1.8
Clc1ccc2c(NCCCCNCC34CC5CC(CC(C5)C3)C4)ccnc2c1	0.9
